- Test system: C. albicans
- Assay details: C. elegans-C. albicans co-inoculation assay, nematode survival
- Assay type: in vivo
- Assay conditions: dose response, C. albicans-infected C. elegans
Recorded maximum nematode survival by entry
I'd appreciate it if you included the unit after the number.

**Query** Looking for the measured maximum nematode survival of CC1CC[C@@]2(OC1)O[C@H]1CC3C4C[C@@H](O)C5C[C@@H](O[C@@H]6O[C@H](CO)[C@H](O[C@@H]7O[C@H](CO)[C@@H](O)[C@H](O[C@@H]8OC[C@@H](O[C@@H]9O[C@H](CO)[C@@H](O)[C@H](O)[C@H]9O)[C@H](O)[C@H]8O)[C@H]7O[C@@H]7O[C@H](CO)[C@@H](O)[C@H](O)[C@H]7O)[C@H](O)[C@H]6O)CC[C@]5(C)C4CC[C@]3(C)[C@H]1[C@@H]2C (stereo partly drawn) , can you help?
**Result** 93%

**Query** Same question for C[C@@H]1O[C@@H](O[C@H]2[C@H](O[C@H]3[C@H](O[C@H]4[C@H](O)[C@@H](O[C@@H]5O[C@H](CO)[C@@H](O)[C@H](O)[C@H]5O)[C@H](O[C@H]5CC[C@@]6(C)C(CC[C@]7(C)C6CC[C@]68OCC9(CCC(C)(C)CC96)[C@H](O)C[C@]87C)C5(C)C)O[C@@H]4C(=O)O)O[C@H](CO)[C@H](O)[C@@H]3O)O[C@@H](C)[C@H](O)[C@H]2O)[C@H](O)[C@H](O)[C@H]1O (stereo partly drawn) please.
**Result** 93%

**Query** Same lookup for C/C=C(/C)C(=O)O[C@H]1CC(C)(C)C[C@H]2C3=CCC4[C@@]5(C)CC[C@H](O[C@@H]6O[C@H](C(=O)O)[C@@H](O[C@@H]7O[C@H](CO)[C@H](O)[C@H](O)[C@H]7O[C@@H]7O[C@H](CO)[C@@H](O)[C@H](O)[C@H]7O)[C@H](O)[C@H]6OC6O[C@@H](C)[C@H](O)[C@@H](O)[C@H]6O)C(C)(C)C5CC[C@@]4(C)[C@]3(C)[C@@H](OC(C)=O)[C@@H](O)[C@@]12COC(C)=O (stereo partly drawn) , please.
**Result** 93%

---

# key: entry, value: MIC in vitro
- System: C. albicans strain DAY185
- Assay details: in vitro antifungal activity (MIC) in the co-inoculation assay, turbidity read visually
- Type: cell-based
- Assay conditions: co-inoculation assay, two-fold serial dilutions, C. albicans DAY185
Just the number please, in µg/mL, no unit attached.

Field: example entries. Status: answers known.
[
  {
    "Compound": "C/C=C(/C)C(=O)O[C@H]1CC(C)(C)C[C@H]2C3=CCC4[C@@]5(C)CC[C@H](O[C@@H]6O[C@H](C(=O)O)[C@@H](O[C@@H]7O[C@H](CO)[C@H](O)[C@H](O)[C@H]7O[C@@H]7O[C@H](CO)[C@@H](O)[C@H](O)[C@H]7O)[C@H](O)[C@H]6OC6O[C@@H](C)[C@H](O)[C@@H](O)[C@H]6O)C(C)(C)C5CC[C@@]4(C)[C@]3(C)C[C@@H](O)[C@@]12CO (stereo partly shown)",
    "Endpoint label": "MIC in vitro",
    "Result unit": "µg/mL",
    "Reported value": 26.5
  },
  {
    "Compound": "C[C@@H]1O[C@@H](O[C@H]2[C@H](O[C@H]3[C@H](O[C@H]4[C@H](O)[C@@H](O[C@@H]5O[C@H](CO)[C@@H](O)[C@H](O)[C@H]5O)[C@H](O[C@H]5CC[C@@]6(C)C(CC[C@]7(C)C6CC[C@]68OCC9(CCC(C)(C)CC96)[C@H](O)C[C@]87C)C5(C)C)O[C@@H]4C(=O)O)O[C@H](CO)[C@H](O)[C@@H]3O)O[C@@H](C)[C@H](O)[C@H]2O)[C@H](O)[C@H](O)[C@H]1O (stereo partly shown)",
    "Endpoint label": "MIC in vitro",
    "Result unit": "µg/mL",
    "Reported value": 27.5
  },
  {
    "Compound": "CC1CC[C@@]2(OC1)O[C@H]1CC3C4C[C@@H](O)C5C[C@@H](O[C@@H]6O[C@H](CO)[C@H](O[C@@H]7O[C@H](CO)[C@@H](O)[C@H](O[C@@H]8OC[C@@H](O[C@@H]9O[C@H](CO)[C@@H](O)[C@H](O)[C@H]9O)[C@H](O)[C@H]8O)[C@H]7O[C@@H]7O[C@H](CO)[C@@H](O)[C@H](O)[C@H]7O)[C@H](O)[C@H]6O)CC[C@]5(C)C4CC[C@]3(C)[C@H]1[C@@H]2C (stereo partly shown)",
    "Endpoint label": "MIC in vitro",
    "Result unit": "µg/mL",
    "Reported value": 13.3
  }
]

--- query ---
**Query** What value of measured MIC in vitro is listed for CC1CC[C@@]2(OC1)O[C@H]1CC3C4C[C@@H](O)C5C[C@@H](O[C@@H]6O[C@H](CO)[C@H](O[C@@H]7O[C@H](CO)[C@@H](O)[C@H](O[C@@H]8OC[C@@H](O)[C@H](O)[C@H]8O)[C@H]7O[C@@H]7O[C@H](CO)[C@@H](O)[C@H](O)[C@H]7O)[C@H](O)[C@H]6O)[C@H](O)C[C@]5(C)C4CC[C@]3(C)[C@H]1[C@@H]2C (stereo partly shown) [A16, Aginoside] ?
**Result** 47.0
